# testedSystem: Bcl-2-like protein 1 (Homo sapiens, UniProt Q07817, A93V)
# Sequence (Q07817 whole entry A93V): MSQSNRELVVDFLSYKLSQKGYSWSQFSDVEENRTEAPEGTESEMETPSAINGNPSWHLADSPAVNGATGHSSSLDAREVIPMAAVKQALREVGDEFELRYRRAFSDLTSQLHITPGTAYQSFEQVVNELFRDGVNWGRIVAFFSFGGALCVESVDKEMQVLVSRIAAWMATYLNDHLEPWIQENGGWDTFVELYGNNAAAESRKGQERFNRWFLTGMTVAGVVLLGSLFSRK
# protocolText: Displacement of BODIPY-Bak conjugated peptide from GST-tagged human Bcl-2-like protein 1 A93V mutant expressed in Escherichia coli BL21 cells at 40 uM after 3 hrs by fluorescence polarization competition assay
pKi: −log10 of the molar value.
experimentalEndpoint: pKi

Consider the substance H-PAELEVECATQLRRFGDKLNFRQKLL-OH tested on Bcl-2-like protein 1 (Homo sapiens, UniProt Q07817, A93V); state its pKi.
< 5.00

---

# testedSystem: Bcl-2-like protein 1 (Homo sapiens, UniProt Q07817, G196A)
# Sequence (Q07817 whole entry G196A): as the sequence (Q07817 whole entry A93V) above, with V93A, G196A counted along it
# protocolText: Displacement of BODIPY-Bak conjugated peptide from GST-tagged human Bcl-2-like protein 1 G196A mutant expressed in Escherichia coli BL21 cells at 40 uM after 3 hrs by fluorescence polarization competition assay
pKi: −log10 of the molar value.
experimentalEndpoint: pKi

Supply reported pKi belonging to this substance: H-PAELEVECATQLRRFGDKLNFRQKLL-OH
< 5.00
